# assayed-target: abc isoform of human TMEM16A channel expressed in CHO cells (Homo sapiens, UniProt Q5XXA6, DEL476-501)
# Construct: expressed in transfected cells; host or cells: CHO cells, doxycycline-inducible expression under Blasticidin/Zeocin selection
# Sequence (Q5XXA6 with tags, fused parts or gaps isoform Q5XXA6-5 DEL539-564): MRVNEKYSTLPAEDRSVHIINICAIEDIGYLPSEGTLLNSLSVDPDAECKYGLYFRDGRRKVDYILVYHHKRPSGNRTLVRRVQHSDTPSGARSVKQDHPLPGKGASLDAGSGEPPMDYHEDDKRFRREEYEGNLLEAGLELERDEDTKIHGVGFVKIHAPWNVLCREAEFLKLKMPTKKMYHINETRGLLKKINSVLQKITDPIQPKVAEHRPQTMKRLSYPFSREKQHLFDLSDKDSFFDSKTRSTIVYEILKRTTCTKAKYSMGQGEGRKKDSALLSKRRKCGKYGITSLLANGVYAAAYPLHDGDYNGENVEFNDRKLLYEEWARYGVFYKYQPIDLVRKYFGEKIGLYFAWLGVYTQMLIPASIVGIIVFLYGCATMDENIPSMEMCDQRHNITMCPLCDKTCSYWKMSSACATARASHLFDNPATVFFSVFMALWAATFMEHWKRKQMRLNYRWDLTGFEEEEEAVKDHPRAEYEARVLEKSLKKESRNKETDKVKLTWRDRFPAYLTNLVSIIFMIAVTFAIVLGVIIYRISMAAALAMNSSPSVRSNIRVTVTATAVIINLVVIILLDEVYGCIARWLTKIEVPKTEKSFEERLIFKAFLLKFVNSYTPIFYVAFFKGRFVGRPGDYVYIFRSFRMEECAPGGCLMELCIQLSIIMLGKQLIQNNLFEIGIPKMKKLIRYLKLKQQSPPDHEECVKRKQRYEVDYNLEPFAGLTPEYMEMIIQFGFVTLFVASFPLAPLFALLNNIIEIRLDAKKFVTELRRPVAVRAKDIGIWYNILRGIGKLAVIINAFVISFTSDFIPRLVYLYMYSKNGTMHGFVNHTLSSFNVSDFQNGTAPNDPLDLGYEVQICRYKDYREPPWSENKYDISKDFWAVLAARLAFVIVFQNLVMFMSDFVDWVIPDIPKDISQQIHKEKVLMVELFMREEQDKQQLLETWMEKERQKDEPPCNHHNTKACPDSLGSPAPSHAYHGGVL
# assay-info: Automated patch clamping (QPatch) assay to measure TMEM16A activity in whole-cell
# Assay type: cell-based
# test-conditions: maximum current at highest dose relative to reference potentiator at maximal concentration (upper limit) and vehicle (lower limit)
parameter-measured: TMEM16A QPATCH assay EC50 V3 Assay Window (% TMEM16A max activation) (%)

Recorded results for 3 compounds are shown here.
{"compound": "CCOC(=O)[C@@H](NC(=O)c1cnc(-c2cccc(-c3cc(C(=O)NC(C4CC4)C(F)(F)F)[nH]n3)c2)o1)C(C)C (single isomer, unassigned)", "result-unit": "%", "experimental-result": 97}
{"compound": "CCC(CC)NC(=O)c1cnc(-c2cccc(-c3cc(C(=O)NC(C4CC4)C4CCCO4)n[nH]3)c2)o1 (single isomer, unassigned) [Example 3.4 (i)]", "result-unit": "%", "experimental-result": 90}
{"compound": "CCC(CC)NC(=O)c1cnc(-c2cccc(-c3cc(C(=O)N[C@@H](C#N)CC)n[nH]3)c2)o1 (single isomer, unassigned)", "result-unit": "%", "experimental-result": 109}

I = CCC(CC)NC(=O)c1cnc(-c2cccc(-c3cc(C(=O)NC(C4CC4)C4CCCO4)n[nH]3)c2)o1 (single isomer, unassigned) [Example 3.4 (iv)]
II = CCC(CC)NC(=O)c1cnc(-c2cccc(-c3cc(C(=O)NC(C4CC4)C4CCCO4)n[nH]3)c2)o1 (single isomer, unassigned) [Example 3.4 (ii)]
[in] Select one. Lower TMEM16A QPATCH assay EC50 V3 Assay Window (% TMEM16A max activation): I or II Answer by quoting the chosen item's label.
[out] I

----------
# assayed-target: abc isoform of human TMEM16A channel expressed in CHO cells (Homo sapiens, UniProt Q5XXA6, DEL476-501)
# Construct: expressed in transfected cells; host or cells: CHO cells, doxycycline-inducible expression under Blasticidin/Zeocin selection
# assay-info: Automated patch clamping (QPatch) assay to measure TMEM16A activity in whole-cell
# Format: cell-based
# test-conditions: CHO, maximum current at highest dose relative to reference potentiator at maximal concentration (upper limit) and vehicle (lower limit); read-out: TMEM16A QPATCH assay EC50 V3 Assay Window (% TMEM16A max activation)
# Excerpt: Automated Patch Clamping Assay to Measure TMEM16A Activity in Whole-Cell […] The ion channel activity of TMEM16A (abc) expressed in CHO cells was assed using an automated patch clamp system (Qpatch, Sophion). […] Curve fitting is constrained between the lowest concentration (vehicle-only addition) and the highest current value measured within the concentration range. […]
Counter-ions that a name gives are not always drawn.
parameter-measured: Emax (%)

a = CCOC(=O)[C@@H](NC(=O)c1cnc(-c2cccc(-c3cc(C(=O)NC(C4CC4)C4CC4)n(CC(C)(C)O)n3)c2)o1)C(C)C
b = CCC(CC)NC(=O)c1cnc(-c2cccc(-c3cc(C(=O)N[C@@H](C(=O)OC)c4ccccc4)n[nH]3)c2)o1 [Example 3.65, Trifluoroacetate]
c = CCC(CC)NC(=O)c1cc(-c2cccc(-c3ncc(C(=O)NCc4ccccc4)o3)c2)[nH]n1
d = CCC(CC)NC(=O)c1cnc(-c2cccc(-c3cc(C(=O)Nc4cccc(OC(F)(F)F)c4)n[nH]3)c2)o1
[in] # descending Emax order for the listed molecules Please respond by ranking the labels in the order requested.
[out] a, c, d, b

P = CCC(CC)NC(=O)c1cc(-c2cccc(-c3ncc(C(=O)NC(C)(C)CCc4ccccc4)o3)c2)[nH]n1
Q = CCC(CC)NC(=O)c1cnc(-c2cccc(-c3nc(C(=O)NC(CC)CC)n(CCNCc4ccccc4)n3)c2)o1
R = CCC(CC)NC(=O)c1cnc(-c2cccc(-c3cc(C(=O)NCC4CC4)n[nH]3)c2)o1
[in] Arrange items by their Emax values in increasing order. Please respond by ranking the labels in the order requested.
[out] R, P, Q
(R: 55%, P: 88%, Q: 154%)

P = COC(=O)[C@@H](NC(=O)c1cnc(-c2cccc(-c3cc(C(=O)N[C@@H](C)C4CC4)n[nH]3)c2)o1)C(C)C
Q = CCC(CC)NC(=O)c1cc(-c2cccc(-c3ncc(C(=O)N[C@H](C(=O)OC)c4ccccc4)o3)c2)[nH]n1
[in] Select one. Lower Emax: P or Q Answer by quoting the chosen item's label.
[out] P

I = CCOC(=O)[C@@H](NC(=O)c1cnc(-c2cccc(-c3cc(C(=O)NC(C)C(F)(F)F)[nH]n3)c2)o1)C(C)C (stereo partly drawn)
II = CCOC(=O)[C@@H](NC(=O)c1cnc(-c2cccc(-c3cc(C(=O)NC(CC)CC)n[nH]3)c2)o1)c1ccccc1
[in] Select one. Lower Emax: I or II Answer by quoting the chosen item's label.
[out] I
(I: 69%, II: 102%)

A = C[C@H](NC(=O)c1cnc(-c2cccc(-c3nnc(C(=O)NC(C4CC4)C4CC4)[nH]3)c2)o1)C1CC1
B = CCC(CC)NC(=O)c1cnc(-c2cccc(-c3cc(C(=O)N[C@H](C(=O)OCc4ccccc4)C(C)C)n[nH]3)c2)o1
[in] Select one. Lower Emax: A or B Answer by quoting the chosen item's label.
[out] A
